# measured target: HLA-A*02:01 (Homo sapiens, UniProt P04439, D140Y/D185E/D98H/E176V/E277Q/G131W/G231S/I119V/I121R/I166T/I218V/L300P/L318F/N151K/N90K/P208A/P217A/Q86G/Q94H/R138H/R169H/T345S)
# test summary: MHC binding assay (UV-ligand exchange, ELISA of stabilized MHC complexes)
# experimental parameters: MHC class I binding score; binding to HLA-A*02:01 ranged by peptide exchange yield (UV-ligand exchange, ELISA)
readout type: Peptide exchange

Solved entries:
INSERT INTO measurements (substance, readout_type, result) VALUES
  ('202 (ALLDQQGSRWTL; listed as Homo sapiens) [compound 202]', 'Peptide exchange', '″+++″ (≥50% = +++)'),
  ('207 (GLTSTNAEV; listed as Homo sapiens) [compound 207]', 'Peptide exchange', '″++″ (≥20% = ++)'),
  ('569 (KLVDRTWTL; listed as Homo sapiens) [compound 569]', 'Peptide exchange', '″+++″ (≥50% = +++)'),
  ('372 (TMLLNIPLV; listed as Homo sapiens) [compound 372]', 'Peptide exchange', '″++″ (≥20% = ++)'),
  ('272 (ALGNTVPAV; listed as Homo sapiens) [compound 272]', 'Peptide exchange', '″+++″ (≥50% = +++)'),
  ('25 (FLPDEPYIKV; listed as Homo sapiens) [compound 25]', 'Peptide exchange', '″+++″ (≥50% = +++)'),
  ('485 (NVPDSFNEV; listed as Homo sapiens) [compound 485]', 'Peptide exchange', '″+++″ (≥50% = +++)');

Problem: Please report the recorded Peptide exchange for 286 (YLFPGIPEL; listed as Homo sapiens) [compound 286] .
Solution: ″+++″ (≥50% = +++)

* * *

# measured target: HLA-A*02:01 (Homo sapiens, UniProt P04439, D140Y/D185E/D98H/E176V/E277Q/G131W/G231S/I119V/I121R/I166T/I218V/L300P/L318F/N151K/N90K/P208A/P217A/Q86G/Q94H/R138H/R169H/T345S)
# test summary: MHC binding assay (UV-ligand exchange, ELISA of stabilized MHC complexes)
# experimental parameters: MHC class I binding score; binding to HLA-A*02:01 ranged by peptide exchange yield (UV-ligand exchange, ELISA)
readout type: Peptide exchange

Solved entries:
INSERT INTO results (substance, readout_type, result) VALUES
  ('345 (VIWKALIHL; listed as Homo sapiens) [compound 345]', 'Peptide exchange', '″+++″ (≥50% = +++)'),
  ('83 (ILAPTVMMI; listed as Homo sapiens) [compound 83]', 'Peptide exchange', '″+++″ (≥50% = +++)'),
  ('621 (VLMDRLPSLL; listed as Homo sapiens) [compound 621]', 'Peptide exchange', '″++++″ (≥75% = ++++)'),
  ('374 (FLLQQHLISA; listed as Homo sapiens) [compound 374]', 'Peptide exchange', '″++″ (≥20% = ++)'),
  ('174 (ALAQYLITA; listed as Homo sapiens) [compound 174]', 'Peptide exchange', '″+++″ (≥50% = +++)'),
  ('394 (LLAVIGGLVYL; listed as Homo sapiens) [compound 394]', 'Peptide exchange', '″+++″ (≥50% = +++)'),
  ('564 (TVTNAVVTV; listed as Homo sapiens) [compound 564]', 'Peptide exchange', '″+++″ (≥50% = +++)'),
  ('379 (IMEGTLTRV; listed as Homo sapiens) [compound 379]', 'Peptide exchange', '″++″ (≥20% = ++)');

Problem: Please report the recorded Peptide exchange for 263 (LLVSNLDFGV; listed as Homo sapiens) [compound 263] .
Solution: ″+++″ (≥50% = +++)

Problem: Please report the recorded Peptide exchange for 190 (FLSSLTETI; listed as Homo sapiens) [compound 190] .
Solution: ″+++″ (≥50% = +++)

Problem: Please report the recorded Peptide exchange for 180 (FQIDPHSGLVTV; listed as Homo sapiens) [compound 180] .
Solution: ″++″ (≥20% = ++)
